Where these numbers come from: paper PMC10848157

TEST_PROTOCOL: Pharmacokinetics assay in rats
Assay type: in vivo, male SD rats
MEASUREMENT_CONTEXT: rat, plasma; oral, 10 mg/kg, male SD rats
MEASURED_PROPERTY: half-life (h)

[
  {
    "COMPOUND": "O=C1CCc2cc(OCCCN3CCC(c4noc5cc(F)ccc45)CC3)cc3c2N1CC3 [NH300094]",
    "RECORDED_RESULT": 1.28
  }
]

###

EXPERIMENTAL_TARGET: M1 receptor (Homo sapiens)
Sequence (P11229 whole entry): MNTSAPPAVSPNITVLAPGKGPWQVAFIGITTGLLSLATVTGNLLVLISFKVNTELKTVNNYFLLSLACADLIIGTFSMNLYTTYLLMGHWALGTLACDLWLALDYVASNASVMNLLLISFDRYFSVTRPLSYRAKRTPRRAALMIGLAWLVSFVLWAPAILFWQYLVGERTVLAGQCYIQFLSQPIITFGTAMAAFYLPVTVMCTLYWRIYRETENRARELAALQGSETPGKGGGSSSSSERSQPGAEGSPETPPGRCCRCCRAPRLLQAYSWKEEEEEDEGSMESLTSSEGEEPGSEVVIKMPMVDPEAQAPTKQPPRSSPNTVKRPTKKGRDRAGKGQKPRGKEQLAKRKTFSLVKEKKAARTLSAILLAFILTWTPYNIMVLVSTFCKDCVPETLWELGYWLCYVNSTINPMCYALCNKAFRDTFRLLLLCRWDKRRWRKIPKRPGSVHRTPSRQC
TEST_PROTOCOL: M1 receptor functional assay (calcium flow, FLIPR)
Format: cell-based
MEASUREMENT_CONTEXT: CHO-K1/M1 cells, read-out: M1R, IC50

[
  {
    "SMILES": "O=C1CCc2cc(OCCCN3CCC(c4noc5cc(F)ccc45)CC3)cc3c2N1CC3",
    "U": "µM",
    "IC50": 3.52
  }
]
